tgt: IGF-1R (Homo sapiens, UniProt P08069, M1123C/Y1125N)
Construct: made in house; host or cells: baculovirus; virus made in Sf21, protein expressed in H5 insect cells
Sequence (P08069 with tags, fused parts or gaps M1123C/Y1125N): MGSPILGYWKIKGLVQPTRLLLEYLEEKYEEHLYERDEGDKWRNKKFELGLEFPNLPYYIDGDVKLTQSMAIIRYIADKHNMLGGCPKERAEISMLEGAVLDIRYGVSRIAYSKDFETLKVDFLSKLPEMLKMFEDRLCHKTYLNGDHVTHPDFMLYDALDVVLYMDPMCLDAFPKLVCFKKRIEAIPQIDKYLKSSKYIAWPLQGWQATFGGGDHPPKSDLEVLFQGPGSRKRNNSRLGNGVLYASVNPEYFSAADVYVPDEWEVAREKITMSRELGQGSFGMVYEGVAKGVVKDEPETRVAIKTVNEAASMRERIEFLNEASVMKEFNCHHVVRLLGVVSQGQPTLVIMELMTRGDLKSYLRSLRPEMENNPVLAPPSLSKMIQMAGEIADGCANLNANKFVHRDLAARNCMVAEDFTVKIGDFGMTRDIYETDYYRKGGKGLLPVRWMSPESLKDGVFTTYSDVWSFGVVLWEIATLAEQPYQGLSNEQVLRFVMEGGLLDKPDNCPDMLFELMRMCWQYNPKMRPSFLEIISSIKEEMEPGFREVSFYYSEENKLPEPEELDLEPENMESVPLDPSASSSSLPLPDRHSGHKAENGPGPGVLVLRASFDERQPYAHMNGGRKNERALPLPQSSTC
assay: Inhibition assay for IGF-1R kinase activity (Scintillation Proximity Assay)
measurement_parameters: read-out: IGF1R IC50 (μM) Biochemical assay
Structures can show the parent of a compound that is named as a salt.

compound	IC50 (µM)
CCOC(=O)n1nc(NC(=O)c2ccc(N3CCN(C)CC3)c(N(C)CCOC)c2)c2c1CNC2 [Example 24, hydrochloride]	0.34

Hello, the source for this data is patent US9012487B2, in case you need it.
